- Experiment Notes: Control incubation without microsomes (buffer stability)
- Type: physicochemical
- Assay Setup: 2 μM final concentration; no microsomes; 90 min
Property: Buffer % Stability at 90 min (%)

Input CC(OC(=O)c1ccc(Cc2c(O)c3ccccc3oc2=O)cc1)C(F)(F)C(F)(F)F (racemic) . Output Buffer % Stability at 90 min: 108

Just so you know, measured Buffer % Stability at 90 min for CC(OC(=O)c1ccc(Cc2c(O)c3ccccc3oc2=O)cc1)(C(F)(F)F)C(F)(F)F [drawing 30] came out at 92

The measured Buffer % Stability at 90 min associated with CC(OC(=O)c1ccc(Cc2c(O)c3ccccc3oc2=O)cc1)C(F)(F)C(F)(F)F (centres unmarked) [drawing 31] reads 123

Buffer % Stability at 90 min in this record for O=C(O)c1ccc(Cc2c(O)c3ccccc3oc2=O)cc1 [drawing 28] : 99

Buffer % Stability at 90 min reading for CC(OC(=O)c1ccc(Cc2c(O)c3ccccc3oc2=O)cc1)C(F)(F)C(F)(F)F (centres unmarked) [drawing 32] : 113

---

- System: pooled human liver microsomes (CYP450 + esterase)
- Experiment Notes: Metabolism in pooled human liver microsomes with NADPH (CYP450 + esterase)
- Type: in vitro ADME
- Assay Setup: 2 μM final concentration, 90 min
Property: CYP + Esterase % Stability at 90 min (%)

Summary line: CC(OC(=O)c1ccc(Cc2c(O)c3ccccc3oc2=O)cc1)C(F)(F)C(F)(F)F (centres unmarked) [drawing 32] , pooled human liver microsomes (CYP450 + esterase), reported CYP + Esterase % Stability at 90 min = 24

The reported pooled human liver microsomes (CYP450 + esterase) CYP + Esterase % Stability at 90 min of CC(OC(=O)c1ccc(Cc2c(O)c3ccccc3oc2=O)cc1)C(F)(F)C(F)(F)F (racemic) is 69

a = O=C(O)c1ccc(Cc2c(O)c3ccccc3oc2=O)cc1 [drawing 28]
b = CC(OC(=O)c1ccc(Cc2c(O)c3ccccc3oc2=O)cc1)C(F)(F)C(F)(F)F (centres unmarked) [drawing 31]
Incoming: Recorded CYP + Esterase % Stability at 90 min values differ for a and b ; which one is higher? Returns: label corresponding to the selected item.
Outgoing: a
(a: 101%, b: 70%)

Hey, just so you know, these numbers are from patent US7932405B2.
